Assay: Apparent elimination half life in HIV1 infected human at 1000 mg, po administered twice daily
Assay type: ADME, organism-based
Settings: in vivo
measurement_type: half-life (h)
Number in h, nothing else.

What measured half-life goes with "CC(C)(C)NC(=O)[C@@H]1C[C@@H]2CCCC[C@@H]2CN1C[C@@H](O)[C@H](Cc1ccccc1)NC(=O)[C@H](CC(N)=O)NC(=O)c1ccc2ccccc2n1" ?
3.7

* * *

Test: Apparent elimination half life in HIV1 infected human at 100 mg, po administered twice daily
Type: ADME, organism-based
Conditions: in vivo
measurement_type: half-life (h)
Kindly provide the numeric value in h only, without the unit symbol.

Recorded half-life for "CC(C)c1nc(CN(C)C(=O)N[C@H](C(=O)N[C@@H](Cc2ccccc2)C[C@H](O)[C@H](Cc2ccccc2)NC(=O)OCc2cncs2)C(C)C)cs1" , please?
4.3
